Measured IC50, listed per entry.
# Target Entity: UniProt:O43497
# Sequence (O43497 whole entry): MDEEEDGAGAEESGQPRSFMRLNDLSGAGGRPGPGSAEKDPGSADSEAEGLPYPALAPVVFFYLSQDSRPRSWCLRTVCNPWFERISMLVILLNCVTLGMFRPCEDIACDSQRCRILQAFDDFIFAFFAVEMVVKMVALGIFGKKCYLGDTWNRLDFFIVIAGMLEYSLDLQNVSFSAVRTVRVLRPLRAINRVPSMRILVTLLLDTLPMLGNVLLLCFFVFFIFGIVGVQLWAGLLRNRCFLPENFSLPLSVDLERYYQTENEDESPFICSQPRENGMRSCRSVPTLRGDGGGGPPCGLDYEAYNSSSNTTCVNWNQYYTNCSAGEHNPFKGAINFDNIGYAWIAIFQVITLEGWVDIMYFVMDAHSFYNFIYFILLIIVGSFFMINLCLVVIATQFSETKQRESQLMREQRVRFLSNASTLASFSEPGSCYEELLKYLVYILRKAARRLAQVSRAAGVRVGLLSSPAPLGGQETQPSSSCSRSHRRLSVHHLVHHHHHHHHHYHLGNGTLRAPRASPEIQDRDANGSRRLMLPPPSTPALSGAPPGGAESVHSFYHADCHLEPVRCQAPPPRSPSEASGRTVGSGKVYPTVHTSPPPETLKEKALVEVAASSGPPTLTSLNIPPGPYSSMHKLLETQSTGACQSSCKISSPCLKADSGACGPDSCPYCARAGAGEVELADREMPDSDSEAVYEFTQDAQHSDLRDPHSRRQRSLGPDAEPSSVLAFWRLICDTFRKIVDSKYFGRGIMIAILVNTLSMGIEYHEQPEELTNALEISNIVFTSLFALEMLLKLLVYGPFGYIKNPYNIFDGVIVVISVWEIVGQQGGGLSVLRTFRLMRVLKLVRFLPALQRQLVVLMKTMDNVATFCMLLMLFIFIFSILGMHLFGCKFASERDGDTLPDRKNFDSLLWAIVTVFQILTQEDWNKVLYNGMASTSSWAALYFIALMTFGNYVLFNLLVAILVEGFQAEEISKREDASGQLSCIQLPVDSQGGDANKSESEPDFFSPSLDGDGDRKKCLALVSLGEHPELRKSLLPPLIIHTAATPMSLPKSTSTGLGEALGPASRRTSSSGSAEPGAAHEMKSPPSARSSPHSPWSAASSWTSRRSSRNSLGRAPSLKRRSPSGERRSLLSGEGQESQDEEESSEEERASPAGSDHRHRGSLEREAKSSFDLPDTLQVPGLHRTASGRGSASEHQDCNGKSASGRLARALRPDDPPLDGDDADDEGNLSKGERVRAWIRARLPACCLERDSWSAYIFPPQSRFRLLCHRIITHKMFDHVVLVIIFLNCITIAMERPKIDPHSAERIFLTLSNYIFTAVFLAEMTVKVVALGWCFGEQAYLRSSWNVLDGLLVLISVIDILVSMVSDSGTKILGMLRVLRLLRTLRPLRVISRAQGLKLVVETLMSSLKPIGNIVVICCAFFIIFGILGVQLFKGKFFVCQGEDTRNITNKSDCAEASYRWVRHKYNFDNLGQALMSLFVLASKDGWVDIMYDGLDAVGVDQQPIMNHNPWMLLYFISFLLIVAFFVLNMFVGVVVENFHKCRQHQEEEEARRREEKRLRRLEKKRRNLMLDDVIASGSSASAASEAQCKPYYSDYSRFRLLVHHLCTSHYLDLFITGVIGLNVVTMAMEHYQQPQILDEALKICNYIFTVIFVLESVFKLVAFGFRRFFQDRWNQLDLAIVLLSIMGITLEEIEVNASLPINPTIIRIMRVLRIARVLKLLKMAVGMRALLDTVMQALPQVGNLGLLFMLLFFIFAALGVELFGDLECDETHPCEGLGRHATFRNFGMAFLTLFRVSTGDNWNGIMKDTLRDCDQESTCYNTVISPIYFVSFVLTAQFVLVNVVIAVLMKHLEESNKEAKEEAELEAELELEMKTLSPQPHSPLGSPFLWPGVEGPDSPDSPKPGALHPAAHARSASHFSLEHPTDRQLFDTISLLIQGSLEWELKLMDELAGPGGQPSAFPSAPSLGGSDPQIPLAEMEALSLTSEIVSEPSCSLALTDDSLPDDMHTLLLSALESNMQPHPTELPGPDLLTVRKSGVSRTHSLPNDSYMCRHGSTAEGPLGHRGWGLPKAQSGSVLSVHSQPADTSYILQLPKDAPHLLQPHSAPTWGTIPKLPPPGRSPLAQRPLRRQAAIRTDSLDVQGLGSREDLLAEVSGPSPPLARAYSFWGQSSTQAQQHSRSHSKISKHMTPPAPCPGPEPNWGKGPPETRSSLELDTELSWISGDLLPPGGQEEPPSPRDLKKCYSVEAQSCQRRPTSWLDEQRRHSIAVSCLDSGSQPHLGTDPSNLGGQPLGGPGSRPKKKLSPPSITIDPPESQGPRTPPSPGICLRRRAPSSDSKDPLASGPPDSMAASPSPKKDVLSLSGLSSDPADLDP
# Experiment Notes: Human Cav3.1 calcium channel patch clamp assay (SyncroPatch 384PE, HEK-293 natClytin/TASK1+Cav3.1 cell line)
# Type: cell-based
# Measurement Conditions: voltage dependent block (VDB); read-out: Cav3.1 (VDB) IC50
Reply numerically in nM, unit not repeated.

[in] What does the record list as IC50 for O=C(CN1CC2(CCC(C(=O)Nc3cc(F)cc(OC(F)F)c3)CC2)C1)NC1(C(F)(F)F)CC1 ?
[out] 366

[in] Try this molecule too: COc1cc(NC(=O)C2CCC3(CC2)CN(CC(=O)NC(C)(C)C)C3)ccc1F
[out] 300

[in] Try this molecule too: O=C(CN1CC2(CCC(C(=O)Nc3ccc(F)c(OC(F)(F)F)c3)CC2)C1)NC1(C(F)(F)F)CC1
[out] 297

[in] Try this molecule too: CC(C)(C)S(=O)(=O)CCN1CC2(CCC(C(=O)Nc3cccc(Cl)c3)CC2)C1
[out] 739

[in] Try this molecule too: O=C(Nc1cc(F)cc(C(F)F)c1)C1CCC2(CC1)CN(CCC1CCCC1)C2
[out] 376

[in] Try this molecule too: CC1(NC(=O)CN2CC3(CCC(C(=O)Nc4cc(F)cc(Cl)c4)CC3)C2)CC1
[out] 146

[in] Try this molecule too: O=C(CN1CC2(CCC(C(=O)Nc3cc(F)cc(C(F)F)c3)CC2)C1)NC1CCCC1
[out] 139

Continue with the next molecule.
[in] What does the record list as IC50 for CCOc1cccc(NC(=O)C2CCC3(CC2)CN(CC(=O)NC2(C(F)(F)F)CC2)C3)c1 ?
[out] 1130
